system: THP-1; experiment: Cell growth inhibition assay (CellTiter-Glo), THP-1; format: cell-based, human; conditions: THP-1 cells, 4 days, total growth inhibition
measurement kind: THP-1 TGI (µM)
# output: bare number, implied unit µM

As a guide, the following entries are already answered.
COc1ccc(C2c3c(ccn3C)C(=O)N2c2cc(Cl)c(=O)n(C)c2)cc1 (centres unmarked) [Example 92] | 2.405
Cc1cc(N2C(=O)c3c(NC(=O)OC(C)(C)C)cn(C)c3C2c2ccc(Cl)cc2)nc2c1nnn2C (centres unmarked) [Example 95] | 0.0815
Cc1cc(N2C(=O)c3cc(-c4cnc(N(C)C)nc4)n(C)c3C2c2ccc(Cl)cc2)cn(C)c1=O (centres unmarked) [Example 57] | 0.126
COc1cccc(C2c3c(ccn3C)C(=O)N2c2cc(Cl)c(=O)n(C)c2)c1 (centres unmarked) [Example 91] | 1.0025

The reported THP-1 TGI of the molecule COc1nccc(-c2cc3c(n2C)C(c2ccc(Cl)cc2)N(c2cc(Cl)c(=O)n(C)c2)C3=O)n1 (centres unmarked) [Example 39] was 0.238

The reported THP-1 TGI of the molecule Cc1ccc(C2c3c(ccn3C)C(=O)N2c2cc(C)c(=O)n(C)c2)cc1 (centres unmarked) [Example 81] was 0.3

The reported THP-1 TGI of the molecule Cc1cc(N2C(=O)c3c(C4CC4)cn(C4COC4)c3C2c2ccc(Cl)cc2)cn2c(C)nnc12 (centres unmarked) [Example 18] was 0.01335

The reported THP-1 TGI of the molecule Cc1cn(C)c2c1C(=O)N(c1cc(C)c(=O)n(C)c1)C2c1ccc(Cl)cc1 (centres unmarked) [Example 34] was 0.0994
